Collected GI50 values appear next to each entry.
- Tested on: DU-145
- protocol-description: NCI tumour cell line growth inhibition, 48 h
Active and inactive are the calls of the source. Rule as the data show it: active = GI50 up to about 1.1 µM and inactive = higher.

{"molecule": "COC(=O)NN(C(=O)OC)c1c(-c2ccccc2)nc(SC)n1N", "GI50": "> 100 µM (inactive)"}
{"molecule": "c1ccc(C(/C(=N/c2ccc(Cc3ccc(/N=C(\\C(c4ccccc4)c4ccccc4)N4CC4)cc3)cc2)N2CC2)c2ccccc2)cc1", "GI50": "12.6 µM (inactive)"}
{"molecule": "O=C1Nc2ccccc2S/C1=C\\c1ccccc1C(F)(F)F", "GI50": "> 100 µM (inactive)"}
{"molecule": "CCN1C(=S)n2cccc2C1CC(=O)c1ccc(Cl)cc1 (configuration not stated)", "GI50": "> 100 µM (inactive)"}
{"molecule": "O=C(c1cc2ccccc2[nH]1)N1C2CCC1CN(CCOC(c1ccc(F)cc1)c1ccc(F)cc1)CC2 (configuration not stated)", "GI50": "> 100 µM (inactive)"}
{"molecule": "CC(NC(=O)Cc1ccc(OP(=O)(OCc2ccc([N+](=O)[O-])o2)N(C)CCCCCl)cc1)c1ccc(OCC2CCCCC2)c(C(N)=O)c1 (configuration not stated)", "GI50": "2.8 µM (inactive)"}

State the recorded GI50 for this entry: OCC1OC(NC(=S)NCCC(F)(F)C(F)(F)C(F)(F)C(F)(F)C(F)(F)C(F)(F)F)C(O)C(O)C1O (configuration not stated) > 100 µM (inactive)

Next up: C=C1C(=O)[C@@]23CC1C(O)[C@@H](OC(C)=O)[C@@H]2C1(C)C(OC(C)=O)C[C@@H](OC(C)=O)C(C)(C)[C@@H]1C[C@H]3OC(C)=O (some centres not stated) > 10 µM (inactive)

Next up: CSc1nc2c(c(=O)n1C)N=C(c1ccc([N+](=O)[O-])cc1)CC(c1ccccc1)N2 (configuration not stated) > 100 µM (inactive)

====

- Tested on: MOLT-4
- protocol-description: NCI tumour cell line growth inhibition, 48 h
The source made the active and inactive calls. Rule as the data show it: active = GI50 up to about 1.1 µM and inactive = higher.
Collected GI50 values appear next to each entry.

{"compound": "O=c1oc2c(Br)c(O)c(Br)cc2c2ccccc12", "GI50": "27.4 µM (inactive)"}
{"compound": "CC1=CC(=O)CC(C)(C)C1(O)/C=C/C(C)=C/C(=O)O (stereo not given)", "GI50": "> 100 µM (inactive)"}
{"compound": "CC1(C)OC(COCCOCCCCCO)C(COCCOCCCCCO)O1 (stereo not given)", "GI50": "> 100 µM (inactive)"}
{"compound": "O=C(O)CCC(NC(=O)c1ccc(Nc2cnc3ccc(C(F)(F)F)cc3n2)cc1)C(=O)O (stereo not given)", "GI50": "> 100 µM (inactive)"}

Continue with the next compound.
For the record CC(NC(=O)Cc1ccc(OP(=O)(OCc2ccc([N+](=O)[O-])o2)N(C)CCCCCl)cc1)c1ccc(OCC2CCCCC2)c(C(N)=O)c1 (stereo not given) , what value of GI50 is listed for MOLT-4? 1.52 µM (inactive)

====

- Tested on: K562
- protocol-description: NCI tumour cell line growth inhibition, 48 h
The source made the active and inactive calls. No stated cut-off is given here; in the data, active = GI50 up to about 1.1 µM and inactive = higher.
Outcome field: choose from active, inactive

{"compound": "O=c1oc2c(Br)c(O)c(Br)cc2c2ccccc12", "study-system": "K562", "label-value": "inactive"}
{"compound": "COc1cccc(N2C(=O)C3c4[nH]c5ccc(C)cc5c4C4CCC(C)CC4C3C2=O)c1 (centres undefined)", "study-system": "K562", "label-value": "inactive"}
{"compound": "Oc1cc(CF)nc(S)n1", "study-system": "K562", "label-value": "inactive"}
{"compound": "COc1ccc(COCC[C@H](C)OC2OC(CO)C(O)C(O)C2O)cc1 (some centres undefined)", "study-system": "K562", "label-value": "inactive"}
{"compound": "COCCOC1=CC(=O)c2c(O)ccc(O)c2C1=O", "study-system": "K562", "label-value": "inactive"}

Recorded call for C[N+](C)(C)CCOP(=O)(O)OP(=O)([O-])OCC1CCC(n2ccc(N)nc2=O)O1 (centres undefined) ? inactive

Next up: C[C@]12CC[C@H](O)C=C1CC[C@@H]1[C@@H]2CC[C@]2(C)C(c3ccc(=O)oc3)CC[C@]12O (some centres undefined) active

Next up: COC(=O)C1=C(OC(=O)/C=C/c2ccc(Cl)cc2)C(C(=O)OC)[C@@]2(O)[C@@H](C(=O)OC)[C@H](C)C[C@@H]1[C@@H]2C(=O)OC (some centres undefined) inactive

Next up: COC(=O)Cc1c(C2=Nc3ccccc3C2(O)CC(=O)OC)[nH]c2ccccc12 (centres undefined) inactive

====

- Test system: RXF 393
- protocol-description: NCI tumour cell line growth inhibition, 48 h
Calls of active or inactive are those of the source. No stated cut-off is given here; in the data, active = GI50 up to about 1.1 µM and inactive = higher.
measure: GI50

Here's what some known entries look like.
{"compound": "O=C(O)c1cc2ccccc2c(S(=O)(=O)O)c1O", "GI50": "> 100 µM (inactive)"}
{"compound": "COc1cc(N(CCC#N)CCC#N)ccc1C(/N=N/c1cccc(C)c1)=N\\NC(=O)c1ccc(C)cc1", "GI50": "73.8 µM (inactive)"}

State the recorded GI50 for this entry: CN(C)CCNC(=O)c1ccccc1Nc1c(Cl)cccc1Cl 1.69 µM (inactive)

Next up: N/N=C1\C(=O)N(c2ccc(Cl)c(Cl)c2)C(=O)C1C(=O)Nc1ccc(Cl)c(Cl)c1 (stereo not given) > 100 µM (inactive)

Next up: CCOC(=O)CC1(Cc2ccc(OCc3ccccc3)cc2)C(=O)OC(c2ccccc2)N1C(=O)c1ccccc1 (stereo not given) > 100 µM (inactive)

Next up: O=C1Nc2ccccc2S/C1=C\c1ccccc1C(F)(F)F > 100 µM (inactive)

Next up: O=C(O)CCC(NC(=O)c1ccc(Nc2cnc3ccc(C(F)(F)F)cc3n2)cc1)C(=O)O (stereo not given) > 100 µM (inactive)

Next up: CCN(CC)c1ccc2cc(C(N)=S)c(=N)oc2c1 > 100 µM (inactive)

Next up: NC(=S)N1N=C2c3ccccc3CC[C@H]2[C@@H]1c1ccc(Cl)cc1 30 µM (inactive)

Next up: COc1ccc(COCC[C@H](C)OC2OC(CO)C(O)C(O)C2O)cc1 (stereo not given in full) > 100 µM (inactive)

====

- Tested on: OVCAR-8
- protocol-description: NCI tumour cell line growth inhibition, 48 h
Calls of active or inactive are those of the source. Rule as the data show it: active = GI50 up to about 1.1 µM and inactive = higher.
Collected GI50 values appear next to each entry.

Here's what some known entries look like.
{"compound": "N#Cc1ccc(CSC2=C(c3ccc(Cl)cc3)S/C(=C3\\SC(SCc4ccc(C#N)cc4)=C(c4ccc(Cl)cc4)S3)S2)cc1", "GI50": "> 100 µM (inactive)"}
{"compound": "O=C(O)Cc1c[nH]c2ccc(F)cc12", "GI50": "> 100 µM (inactive)"}
{"compound": "N#C/C(=C\\c1c[nH]c2ccccc12)C(=O)c1ccc(O)c(O)c1", "GI50": "38.5 µM (inactive)"}

State the recorded GI50 for this entry: COc1cc(C2c3cc4c(cc3[C@@H](NCCN3CCOCC3)C3COC(=O)[C@H]23)OCO4)cc(OC)c1O (stereo not given in full) 2.18 µM (inactive)

Next up: O=C1C2=Nc3ccccc3C(O)(C(=O)O)N2c2ccccc21 (stereo not given) 17.5 µM (inactive)

====

- Tested on: A549
- protocol-description: NCI tumour cell line growth inhibition, 48 h
Activity calls are given as the source filed them. No stated cut-off is given here; in the data, active = GI50 up to about 1.1 µM and inactive = higher.
measure: GI50

Here's what some known entries look like.
{"compound": "O=C1C2=Nc3ccccc3C(O)(C(=O)O)N2c2ccccc21 (configuration not stated)", "observed-result": "7.66 µM (inactive)"}
{"compound": "O=C(O)CNCc1c2ccccc2nc2ccccc12", "observed-result": "43.4 µM (inactive)"}
{"compound": "OCCN(CO)CO", "observed-result": "> 100 µM (inactive)"}
{"compound": "NNc1nncc2[nH]nnc12", "observed-result": "> 100 µM (inactive)"}
{"compound": "O=C1CCc2cc(Br)ccc2O1", "observed-result": "> 100 µM (inactive)"}
{"compound": "COc1ccc(NC(=O)COC(=O)c2cccc3c(=O)c4ccccc4[nH]c23)cc1", "observed-result": "20.3 µM (inactive)"}

Continue with the next compound.
State the recorded GI50 for this entry: [Zn+2][N+]12CCN3CCN4CCN(CC1)[PH]432 (configuration not stated) > 100 µM (inactive)

====

- Test system: NCI/ADR-RES
- protocol-description: NCI tumour cell line growth inhibition, 48 h
Calls of active or inactive are those of the source. Rule as the data show it: active = GI50 up to about 1.1 µM and inactive = higher.
measure: GI50

State the recorded GI50 for this entry: S=c1oc(CCCCCCCCc2nn(CNc3ccc(Cl)cc3)c(=S)o2)nn1CNc1ccc(Cl)cc1 > 100 µM (inactive)

Next up: C=C(CN(C)C)C(=O)c1cc(C)ccc1C 18.3 µM (inactive)

Next up: CCOC(=O)N1CCN(c2c(N)nc(C)nc2O)CC1 > 100 µM (inactive)

Next up: C=C1C(=O)[C@]23[C@H](O)[C@H]1CC[C@H]2[C@@]12CO[C@@]3(O)C[C@@H]1C(C)(C)CC[C@@H]2O 9.66 µM (inactive)

Next up: O=c1oc2c(Br)c(O)c(Br)cc2c2ccccc12 12.2 µM (inactive)

Next up: Cc1cccc(-c2cc(O)c3c(C)cc(C)nc3n2)c1 1.65 µM (inactive)

Next up: Cc1ccc([N+](=O)[O-])c2c(NCC(O)CO)ccnc12 (stereo not given) > 100 µM (inactive)

Next up: C=C1C(=O)OC2C1CC1OC2C(C)CCC/C(C)=C\CCC1(C)O (stereo not given) 14.4 µM (inactive)

Next up: NC(=S)NN=Cc1ccccc1OCc1cccc(COc2ccccc2C=NNC(N)=S)n1 40.6 µM (inactive)

Next up: O=c1c(-c2ccccc2)c(SCCO)n(-c2ccccc2)c(=S)n1-c1ccccc1 > 100 µM (inactive)
